Where do the numbers come from? From ChEMBL document CHEMBL1681667.

Would you kindly list pEC50 for each of these molecules?
Target: Sphingosine 1-phosphate receptor 3 (Homo sapiens, UniProt Q99500)
Sequence (Q99500 whole entry): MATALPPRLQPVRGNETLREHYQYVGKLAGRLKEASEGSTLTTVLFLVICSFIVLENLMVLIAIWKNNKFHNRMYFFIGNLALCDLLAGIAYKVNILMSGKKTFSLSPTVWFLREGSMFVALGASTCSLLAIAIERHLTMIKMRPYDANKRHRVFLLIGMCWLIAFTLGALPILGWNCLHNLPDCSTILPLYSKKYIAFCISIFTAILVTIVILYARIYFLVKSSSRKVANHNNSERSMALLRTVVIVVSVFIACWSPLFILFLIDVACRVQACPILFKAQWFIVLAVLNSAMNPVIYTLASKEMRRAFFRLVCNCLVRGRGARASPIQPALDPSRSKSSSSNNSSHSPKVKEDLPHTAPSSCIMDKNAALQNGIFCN
Assay: Agonist activity at human S1P3 receptor expressed in CHO cells assessed as intracellular calcium levels
pEC50: −log10 of the molar value.

[in] Answer with the recorded pEC50 of O=C(O)CCNCCCc1ccc(OCCCCc2ccccc2)cc1 only.
[out] < 5.00

[in] Using known records, supply pEC50 for C/C(=C/CNCCC(=O)O)c1ccc(OCCCc2ccccc2)cc1
[out] < 5.00

[in] Tell us which pEC50 value is on record for C/C(=C\CNCCC(=O)O)c1ccc(OCCCc2ccccc2)cc1
[out] < 5.00

[in] Please report pEC50 for the following molecule: O=C(O)CCN1CCC/C(=C\c2ccc(OCCCc3ccccc3)cc2)C1
[out] < 5.00

[in] Please report pEC50 for the following molecule: O=C(O)CCNCCCc1ccc(OCCCc2ccccc2)cc1
[out] 5.05

---

Target: Sphingosine 1-phosphate receptor 2 (Homo sapiens)
Sequence (O95136 whole entry): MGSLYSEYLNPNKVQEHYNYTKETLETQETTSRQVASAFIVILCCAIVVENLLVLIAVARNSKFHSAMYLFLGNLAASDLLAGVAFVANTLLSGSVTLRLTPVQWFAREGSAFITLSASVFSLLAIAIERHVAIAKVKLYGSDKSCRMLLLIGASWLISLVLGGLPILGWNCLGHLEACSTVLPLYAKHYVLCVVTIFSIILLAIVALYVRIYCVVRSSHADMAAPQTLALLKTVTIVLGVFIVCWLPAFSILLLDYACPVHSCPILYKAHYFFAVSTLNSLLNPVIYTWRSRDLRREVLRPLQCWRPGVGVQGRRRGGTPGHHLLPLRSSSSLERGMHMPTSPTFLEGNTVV
Assay: Agonist activity at human S1P2 receptor expressed in CHO cells assessed as intracellular calcium levels
Assay type: functional, cell-based
pEC50: −log10 of the molar value.
measured attribute: pEC50

[in] Find the measured pEC50 of O=C(O)CCNCCCc1ccc(OCCCCCc2ccccc2)cc1 with Sphingosine 1-phosphate receptor 2 (Homo sapiens) as test system.
[out] < 5.00

---

Test: AUC (infinity) in rat at 30 mg/kg, po
Assay type: ADME, organism-based
Parameters: time infinity, dose 30 mg/kg, route oral
Conditions: plasma
measured attribute: AUC(0-inf) (µg·h/mL)
Write down the numeric answer in µg·h/mL and omit the unit.

[in] Give the value of AUC(0-inf) reported for the following: O=C(O)CCNCCCc1ccc(OCCCc2ccccc2)cc1
[out] 174

---

Molecular target: UniProt:Q99500
Experiment: Agonist activity at human S1P3 receptor expressed in CHO cells assessed as intracellular calcium levels
measured attribute: EC50 (µM)
Respond numerically; units are µM and should not be typed.

[in] # return recorded EC50 for entry C/C(=C\c1ccc(OCCCc2ccccc2)cc1)CNCCC(=O)O
[out] 1.9

[in] Report measured EC50; entry is O=C(O)CCNCCCc1ccc(OCCCCCc2ccccc2)cc1
[out] 4.2

[in] Check the records and state EC50 for O=C(O)CCNC/C=C/c1ccc(OCCCc2ccccc2)cc1
[out] 3.3

[in] Read off the recorded EC50 for O=C(O)CCN1CC=C(c2ccc(OCCCc3ccccc3)cc2)CC1
[out] 1.2

---

Assay: Cmax in rat at 30 mg/kg, po
Assay type: ADME, organism-based
Design: dose 30 mg/kg, route oral
Details: in vivo
measured attribute: Cmax (ng/mL)
Number in ng/mL, nothing else.

[in] For the compound O=C(O)CCNCCCc1ccc(OCCCc2ccccc2)cc1 , report Cmax.
[out] 28000

---

Molecular target: Sphingosine 1-phosphate receptor 5 (Homo sapiens)
Sequence (Q9H228 whole entry): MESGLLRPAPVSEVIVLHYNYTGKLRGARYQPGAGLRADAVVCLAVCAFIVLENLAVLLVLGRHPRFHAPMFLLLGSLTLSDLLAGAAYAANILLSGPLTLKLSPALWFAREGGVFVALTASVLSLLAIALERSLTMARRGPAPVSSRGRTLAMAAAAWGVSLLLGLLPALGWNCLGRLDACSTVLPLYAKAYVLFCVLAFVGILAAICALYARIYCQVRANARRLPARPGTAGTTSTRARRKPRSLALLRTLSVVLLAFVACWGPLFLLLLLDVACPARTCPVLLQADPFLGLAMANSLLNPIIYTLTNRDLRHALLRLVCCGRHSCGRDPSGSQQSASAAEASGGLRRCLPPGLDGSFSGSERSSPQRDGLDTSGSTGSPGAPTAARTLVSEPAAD
Assay: Agonist activity at human S1P5 receptor expressed in CHO cells assessed as intracellular calcium levels
measured attribute: EC50 (nM)
Number in nM, nothing else.

[in] Tell me EC50 reported for O=C(O)CCNCCCc1ccc(OCCCCCc2ccccc2)cc1
[out] 170

---

Molecular target: UniProt:P21453
Sequence (P21453 whole entry): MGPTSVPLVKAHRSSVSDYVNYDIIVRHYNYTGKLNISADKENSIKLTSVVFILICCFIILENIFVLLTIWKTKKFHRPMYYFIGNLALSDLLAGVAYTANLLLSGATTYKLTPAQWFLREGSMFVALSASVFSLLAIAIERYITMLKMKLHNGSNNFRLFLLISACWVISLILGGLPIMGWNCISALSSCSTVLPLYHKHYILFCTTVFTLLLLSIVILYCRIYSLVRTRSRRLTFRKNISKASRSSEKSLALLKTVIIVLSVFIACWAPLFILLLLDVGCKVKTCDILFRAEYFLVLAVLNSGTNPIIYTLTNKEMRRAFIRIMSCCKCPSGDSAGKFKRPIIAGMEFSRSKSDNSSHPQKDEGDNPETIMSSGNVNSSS
Experiment: Agonist activity at human S1P1 receptor expressed in CHO cells assessed as intracellular calcium levels
measured attribute: pEC50
Would you please state pEC50, meaning minus log10 of the concentration in mol/L, as a bare number?

[in] Return reported pEC50. Input compound: C/C(=C/CNCCC(=O)O)c1ccc(OCCCc2ccccc2)cc1
[out] 6.03

[in] Give pEC50 for O=C(O)CCNC/C=C/c1ccc(OCCCc2ccccc2)cc1
[out] 7.15

[in] Return pEC50 (reported value) for this compound: C/C(=C\c1ccc(OCCCc2ccccc2)cc1)CNCCC(=O)O
[out] 7.48

[in] Please indicate pEC50 recorded for O=C(O)CCN1CCC/C(=C\c2ccc(OCCCc3ccccc3)cc2)C1
[out] 5.82

[in] Name the recorded pEC50 of the compound listed here: O=C(O)CCN1CCC(c2ccc(OCCCc3ccccc3)cc2)CC1
[out] 5.80

[in] Recall and state the measured pEC50 for O=C(O)CCNCCCc1ccc(OCCCCc2ccccc2)cc1 .
[out] 5.82

[in] Return the recorded pEC50 value; entry: O=C(O)CCNCCCc1ccc(OCCCCCc2ccccc2)cc1
[out] 6.80

[in] For the compound O=C(O)CCNCCCc1ccc(OCCCCCCc2ccccc2)cc1 , report pEC50.
[out] 5.57

[in] Answer with the recorded pEC50 for the compound listed here: O=C(O)CCNCCCc1ccc(OCCCc2ccccc2)cc1
[out] 5.59

[in] Name the recorded pEC50 of the compound listed here: O=C(O)CCN1CC=C(c2ccc(OCCCc3ccccc3)cc2)CC1
[out] 7.35

[in] Retrieve pEC50 measured for C/C(=C\CNCCC(=O)O)c1ccc(OCCCc2ccccc2)cc1 and print it.
[out] 7.68
